Provenance of the data: ChEMBL document CHEMBL3045021

System: Pseudomonas
Assay: Antimicrobial activity against Pseudomonas at 100 ppm after 24 hr by disk diffusion method
Type: functional
Conditions: read-out: IZ
Please provide measured zone of inhibition at 100 ppm for the entries that follow.
Numbers only here, please. The scale is mm.

IN: Sample `O=C(/C=C/c1ccccc1)c1ccc(N2CCOCC2)cc1` — what was its zone of inhibition at 100 ppm?
OUT: 17

IN: Sample `Cc1ccc(/C=C/C(=O)c2ccc(N3CCOCC3)cc2)cc1` — what was its zone of inhibition at 100 ppm?
OUT: 17

IN: Sample `O=C(/C=C/c1ccc(Cl)cc1)c1ccc(N2CCOCC2)cc1` — what was its zone of inhibition at 100 ppm?
OUT: 17

IN: Sample `COc1ccc(/C=C/C(=O)c2ccc(N3CCOCC3)cc2)cc1` — what was its zone of inhibition at 100 ppm?
OUT: 12
